The following molecules are listed with their measured Cytotoxicity values.
# Tested on: RAW264.7 macrophages
# testProtocol: Cell viability assay (CCK-8) in RAW264.7 macrophages
# Assay type: cell-based
# runConditions: RAW 264.7 cells, 24 h, tested at 20, 40, 80 μmol/L

Worked cases, Cytotoxicity given:
molecule: COC(=O)C(C)(C)c1ccc(C(=O)O)c2c1C(=O)OC2O (racemic) [Compound 8, (±)-Marasmielolic acid D]
Cytotoxicity: > 80 µmol/L
//
molecule: C[C@@H]1OC(=O)c2c1ccc1c2COC1=O
Cytotoxicity: > 80 µmol/L
//
molecule: CC(C)(CC(=O)O)c1ccc(C(=O)O)c2c1C(=O)OC2
Cytotoxicity: > 80 µmol/L
//
molecule: COC(=O)c1c(C(=O)O)ccc2c1C(=O)OC2(C)C
Cytotoxicity: > 80 µmol/L
//
molecule: CC(C)(C(=O)O)c1ccc(C(=O)O)c2c1C(=O)OC2
Cytotoxicity: > 80 µmol/L

*Q* Find the recorded Cytotoxicity belonging to CC(C)(CC(=O)O)c1ccc(C(=O)O)c2c1C(=O)NC2=O and report it.
*A* > 80 µmol/L

*Q* Record: COC(=O)c1c(C(=O)O)ccc2c1C(=O)C(O)=CC2(C)C
*A* > 80 µmol/L

*Q* Record: N=C(N)NN [Aminoguanidine, aminoguanidine, reference compound]
*A* > 80 µmol/L

*Q* Record: CC(=O)OC[C@@]1(C)OC(=O)c2c1ccc1c2COC1=O
*A* > 80 µmol/L

*Q* Record: C[C@]1(CO)OC(=O)c2c1ccc1c2COC1=O
*A* > 80 µmol/L

*Q* Record: CC1(C)OC(=O)c2c1ccc1c2COC1=O
*A* > 80 µmol/L
